The reported measurements were obtained from ChEMBL document CHEMBL1139361.

Method notes: Biodistribution in tumor of iv dosed BALB/c mouse bearing mouse Colon-26 cells after 72 hrs
Format: ADME, organism-based, Neoplasm
Condition notes: read-out: Drug uptake
Measurement type: tissue uptake at 72 h (%ID/g)
Numbers only here, please. The scale is %ID/g.

Problem: Given the compound CCC1=C(C)c2cc3[nH]c(cc4nc(c5c6[nH]c(cc1n2)c(C)c6C(=O)C5)[C@@H](CCC(=O)OC)[C@@H]4C)c(C)c3C(C)OCc1cccc([124I])c1 (stereo partly specified) , what is its reported tissue uptake at 72 h?
Result: 2.5

====

Method notes: Biodistribution in tumor of iv dosed BALB/c mouse bearing mouse Colon-26 cells after 96 hrs
Format: ADME, organism-based, Neoplasm
Condition notes: read-out: Drug uptake
Measurement type: tissue uptake at 96 h
Answer as a quantity: numeral, then unit.

Problem: Look up tissue uptake at 96 h: CCC1=C(C)c2cc3[nH]c(cc4nc(c5c6[nH]c(cc1n2)c(C)c6C(=O)C5)[C@@H](CCC(=O)OC)[C@@H]4C)c(C)c3C(C)OCc1cccc([124I])c1 (stereo partly specified)
Result: 2 %ID/g

====

Method notes: Biodistribution in tumor of iv dosed C3H/HeJ mouse bearing mouse RIF cells after 48 hrs
Assay type: ADME, organism-based, Neoplasm
Condition notes: read-out: Drug uptake
Measurement type: tissue uptake at 48 h (%ID/g)
Kindly answer with a numeric value in %ID/g, unit omitted.

Problem: State the recorded tissue uptake at 48 h for this entry: CCC1=C(C)c2cc3[nH]c(cc4nc(c5c6[nH]c(cc1n2)c(C)c6C(=O)C5)[C@@H](CCC(=O)OC)[C@@H]4C)c(C)c3C(C)OCc1cccc([124I])c1 (stereo partly specified)
Result: 2.1

====

Method notes: Biodistribution in tumor of iv dosed C3H/HeJ mouse bearing mouse RIF cells after 72 hrs
Assay type: ADME, organism-based, Neoplasm
Condition notes: read-out: Drug uptake
Measurement type: tissue uptake at 72 h (%ID/g)
Just the number in %ID/g, nothing appended.

Problem: Record request: tissue uptake at 72 h value, item CCC1=C(C)c2cc3[nH]c(cc4nc(c5c6[nH]c(cc1n2)c(C)c6C(=O)C5)[C@@H](CCC(=O)OC)[C@@H]4C)c(C)c3C(C)OCc1cccc([124I])c1 (stereo partly specified)
Result: 0.8

====

Method notes: Biodistribution in tumor of iv dosed C3H/HeJ mouse bearing mouse RIF cells after 96 hrs
Assay type: ADME, organism-based, Neoplasm
Condition notes: read-out: Drug uptake
Measurement type: tissue uptake at 96 h

Problem: What value of measured tissue uptake at 96 h is listed for CCC1=C(C)c2cc3[nH]c(cc4nc(c5c6[nH]c(cc1n2)c(C)c6C(=O)C5)[C@@H](CCC(=O)OC)[C@@H]4C)c(C)c3C(C)OCc1cccc([124I])c1 (stereo partly specified) ?
Result: 0.6 %ID/g

====

Method notes: Biodistribution in tumor of iv dosed C3H/HeJ mouse bearing mouse RIF cells after 24 hrs
Assay type: ADME, organism-based, Neoplasm
Condition notes: read-out: Drug uptake
Measurement type: tissue uptake at 24 h (%ID/g)
Return type: number; implicit unit %ID/g.

Problem: Recorded tissue uptake at 24 h for CCC1=C(C)c2cc3[nH]c(cc4nc(c5c6[nH]c(cc1n2)c(C)c6C(=O)C5)[C@@H](CCC(=O)OC)[C@@H]4C)c(C)c3C(C)OCc1cccc([124I])c1 (stereo partly specified) , please?
Result: 4.1
